Target: muscarinic acetylcholine receptors (rat cortical receptors)
Test: Inhibition of specific binding of ^3 H-Oxotremorine-M (^3 H-Oxo)
Settings: rat cortex; ^3 H-Oxotremorine 1.0 nM, 25° C., 30 min
Experimental: Furthermore, the pharmacological properties of the compounds of the invention can also be illustrated by determining their capability to inhibit the specific binding of ^3 H-Oxotremorine-M (^3 H-Oxo). Birdsdall N. J. M., Hulme E. C., and Burgen A. S. V. (1980). […] ^3 H-Oxo labels muscarinic receptor in the CNS (with a preference for agonist domains of the receptors). […] Using the present experimental conditions only the high and medium affinity sites are determined. […]
Exercise: for every item that follows, state its recorded IC50.
One number for each entry, in µM.

Below, 3 compounds whose answers are already recorded.
>>> meas_value("Cc1cc(/C=C2/CN3CCC2C3)on1.O=C(O)C(=O)O (stereo not shown) [Compound 6, oxalate]")
1.1
>>> meas_value("Cc1cc(/C=C2/CN3CCCC2C3)on1.O=C(O)C(=O)O (stereo not shown) [Compound 4, oxalate]")
1.78
>>> meas_value("Cc1cc(/C=C2\\CN3CCC2C3)on1.O=C(O)C(=O)O (stereo not shown) [Compound 5, oxalate]")
0.43

IC50 lookup needed for Cc1cc(/C=C2\CN3CCCC2C3)on1.O=C(O)C(=O)O (stereo not shown) [Compound 3, oxalate] , thanks.
0.953

====

target: nicotinic acetylcholine receptors (rat cortical receptors) (Rattus norvegicus, UniProt P09483+P12390); construct: Fresh or frozen rat, brain tissue (hippocampus or cortex) was homogenized; from tissue; host or cells: rat brain tissue (hippocampus or cortex); experiment: Inhibition of specific binding of ^3 H-methylcarbamylcholine (^3 H-MCC); settings: IC50 ^3 H-Oxo / IC50 ^3 H-MCC; selectivity nicotinic over muscarinic
Sequence (P09483 31-630): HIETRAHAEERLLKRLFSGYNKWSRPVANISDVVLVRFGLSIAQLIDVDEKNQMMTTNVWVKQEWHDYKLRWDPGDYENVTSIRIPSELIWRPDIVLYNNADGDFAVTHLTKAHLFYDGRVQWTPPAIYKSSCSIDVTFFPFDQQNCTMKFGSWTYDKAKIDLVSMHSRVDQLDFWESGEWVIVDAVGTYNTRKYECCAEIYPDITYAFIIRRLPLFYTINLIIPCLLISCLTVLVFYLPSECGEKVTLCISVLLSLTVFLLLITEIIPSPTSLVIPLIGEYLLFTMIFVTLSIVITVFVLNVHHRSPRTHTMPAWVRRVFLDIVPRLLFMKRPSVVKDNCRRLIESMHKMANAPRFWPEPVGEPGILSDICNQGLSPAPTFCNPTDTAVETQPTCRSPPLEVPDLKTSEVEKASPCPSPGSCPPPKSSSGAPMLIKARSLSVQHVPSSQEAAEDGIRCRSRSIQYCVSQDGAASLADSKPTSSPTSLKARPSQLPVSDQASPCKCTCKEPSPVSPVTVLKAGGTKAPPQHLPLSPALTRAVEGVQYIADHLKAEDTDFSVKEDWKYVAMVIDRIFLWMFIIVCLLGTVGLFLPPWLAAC
Sequence (P12390 25-500): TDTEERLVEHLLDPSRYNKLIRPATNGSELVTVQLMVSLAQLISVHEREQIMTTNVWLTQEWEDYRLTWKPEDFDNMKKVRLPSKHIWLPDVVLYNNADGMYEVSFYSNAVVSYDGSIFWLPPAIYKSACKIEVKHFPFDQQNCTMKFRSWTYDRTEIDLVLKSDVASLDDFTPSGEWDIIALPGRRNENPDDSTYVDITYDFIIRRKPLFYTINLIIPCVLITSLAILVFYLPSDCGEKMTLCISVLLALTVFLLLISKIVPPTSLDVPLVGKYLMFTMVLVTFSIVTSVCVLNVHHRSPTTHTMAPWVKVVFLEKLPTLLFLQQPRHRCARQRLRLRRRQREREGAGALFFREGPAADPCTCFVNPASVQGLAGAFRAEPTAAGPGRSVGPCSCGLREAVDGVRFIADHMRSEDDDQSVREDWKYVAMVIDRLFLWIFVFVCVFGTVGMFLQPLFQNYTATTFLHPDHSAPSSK
Property: Ratio Oxo/MCC
Numbers only.

Below, 3 compounds whose answers are already recorded.
>>> meas_value("Cc1cc(/C=C2/CN3CCC2C3)on1.O=C(O)C(=O)O (stereo not shown)")
55.0
>>> meas_value("Cc1cc(/C=C2/CN3CCCC2C3)on1.O=C(O)C(=O)O (stereo not shown)")
22.1
>>> meas_value("Cc1cc(/C=C2\\CN3CCC2C3)on1.O=C(O)C(=O)O (stereo not shown)")
17.2

Next compound, Ratio Oxo/MCC to be filled in.
Ratio Oxo/MCC lookup needed for Cc1cc(/C=C2\CN3CCCC2C3)on1.O=C(O)C(=O)O (stereo not shown) , thanks.
5.9

====

target: nicotinic acetylcholine receptors (rat cortical receptors) (Rattus norvegicus, UniProt P09483+P12390); construct: Fresh or frozen rat, brain tissue (hippocampus or cortex) was homogenized; test: Inhibition of specific binding of ^3 H-methylcarbamylcholine (^3 H-MCC); conditions: rat cortical receptors; ^3 H-MCC 2 nM, 0° C., 60 min
Property: IC50 (nM)
Give bare numbers, in nM.

>>> meas_value("Cc1cc(/C=C2/CN3CCC2C3)on1.O=C(O)C(=O)O (stereo not shown) [Compound 6, oxalate]")
20
>>> meas_value("Cc1cc(/C=C2\\CN3CCC2C3)on1.O=C(O)C(=O)O (stereo not shown) [Compound 5, oxalate]")
25
>>> meas_value("Cc1cc(/C=C2\\CN3CCCC2C3)on1.O=C(O)C(=O)O (stereo not shown) [Compound 3, oxalate]")
161

IC50 lookup needed for Cc1cc(/C=C2/CN3CCCC2C3)on1.O=C(O)C(=O)O (stereo not shown) [Compound 4, oxalate] , thanks.
81
